system: MDA-MB-231; assay: Antiproliferative activity against human MDA-MB-231 cells after 24 hrs by MTT assay; type: functional, cell-based; details: MDA-MB-231, 24 h
# IC50 values compiled below
Quantity Kind: IC50 (µM)

1) CCCc1cc2c(=O)[nH]c(-c3ccc(O)cc3)nc2s1	28.4
2) O=c1[nH]c(-c2cccc(O)c2)nc2sc3c(c12)CCCCC3	17.4
3) COc1cc(OC)c2c(=O)[nH]c(-c3cc(C)c(OCCO)c(C)c3)nc2c1	155
4) Cc1sc2c(c1C)C(c1ccc(Cl)cc1)=N[C@@H](CC(=O)OC(C)(C)C)c1nnc(C)n1-2	33

###

target: Bromodomain-containing protein 2 (Homo sapiens); assay: Inhibition of recombinant human N-terminal GST-tagged BRD2 bromodomain-2 (339 to 459 residues) expressed in Escherichia coli expression system after 120 mins by TR-FRET assay
Sequence (P25440 whole entry, the tested form may be a part): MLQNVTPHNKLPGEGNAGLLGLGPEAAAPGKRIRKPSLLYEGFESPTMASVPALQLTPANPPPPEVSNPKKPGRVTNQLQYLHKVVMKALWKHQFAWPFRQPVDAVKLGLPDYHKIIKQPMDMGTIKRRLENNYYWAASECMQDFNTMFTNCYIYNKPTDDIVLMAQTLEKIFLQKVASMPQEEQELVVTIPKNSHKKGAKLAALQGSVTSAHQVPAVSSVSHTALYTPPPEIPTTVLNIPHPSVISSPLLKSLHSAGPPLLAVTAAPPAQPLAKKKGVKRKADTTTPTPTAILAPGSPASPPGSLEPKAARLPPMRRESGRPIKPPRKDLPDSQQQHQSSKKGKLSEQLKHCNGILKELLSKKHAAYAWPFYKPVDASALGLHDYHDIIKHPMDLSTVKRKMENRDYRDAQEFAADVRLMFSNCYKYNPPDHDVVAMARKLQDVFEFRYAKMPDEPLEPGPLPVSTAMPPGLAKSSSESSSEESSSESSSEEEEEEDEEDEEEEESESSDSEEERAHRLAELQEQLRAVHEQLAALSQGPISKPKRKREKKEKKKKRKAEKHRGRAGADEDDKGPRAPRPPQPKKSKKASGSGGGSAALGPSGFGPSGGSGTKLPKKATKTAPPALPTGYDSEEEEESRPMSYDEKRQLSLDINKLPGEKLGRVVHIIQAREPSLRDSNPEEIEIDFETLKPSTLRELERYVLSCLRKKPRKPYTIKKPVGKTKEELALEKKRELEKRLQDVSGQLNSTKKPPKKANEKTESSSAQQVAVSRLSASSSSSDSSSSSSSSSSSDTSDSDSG
Quantity Kind: IC50

1. Cc1cc(-c2nc3sc4c(c3c(=O)[nH]2)CCN(C)C4)cc(C)c1O	> 100 µM

###

target: Bromodomain-containing protein 4 (Homo sapiens, UniProt O60885); experiment: Inhibition of His/thioredoxin-tagged human recombinant BRD4 bromodomain-1 (43 to 166 residues) expressed in Escherichia coli BL21 Star (DE3) pre-incubated for 30 mins followed by biotinylated histone peptide H4 addition measured after 30 mins by AlphaScreen assay
Quantity Kind: IC50

1. Cc1cc(-c2nc3sc4c(c3c(=O)[nH]2)CCN(Cc2ccccc2)C4)cc(C)c1O	> 10 µM
2. CN1CCc2c(sc3nc(-c4cccc(Br)c4)[nH]c(=O)c23)C1	1.04 µM
3. O=c1[nH]c(Cc2ccc(-c3ccccc3)cc2)nc2sc3c(c12)CCCCC3	> 10 µM
4. COc1cccc(-c2nc3sc4c(c3c(=O)[nH]2)CCN(Cc2ccccc2)C4)c1	> 10 µM
5. Oc1nc(-c2ccccc2)nc2sc3c(c12)CCCC3	> 10 µM
6. CCCc1cc2c(=O)[nH]c(Cc3ccc(-c4ccccc4)cc3)nc2s1	> 10 µM
7. COc1ccccc1-c1nc2sc3c(c2c(=O)[nH]1)CCC3	0.78 µM
8. O=c1[nH]c(-c2ccccc2)nc2sc3c(c12)CCC3	> 10 µM
9. O=c1[nH]c(Cc2ccccc2)nc2sc3c(c12)CCC3	> 10 µM
10. O=c1[nH]c(Cc2ccccc2)nc2sc3c(c12)CCCCC3	0.82 µM
11. O=c1[nH]c(-c2ccc(Br)cc2)nc2sc3c(c12)CCCC3	> 10 µM
12. CN1CCc2c(sc3nc(-c4ccc(C(F)(F)F)cc4)[nH]c(=O)c23)C1	> 10 µM
13. O=c1[nH]c(-c2cccc(Br)c2)nc2sc3c(c12)CCC3	> 10 µM
14. CC1CCc2c(sc3nc(Cc4ccccc4)[nH]c(=O)c23)C1 (stereo not drawn)	> 10 µM
15. O=c1[nH]c(-c2cccc(O)c2)nc2sc3c(c12)CCCCC3	3.98 µM
16. CC1CCc2c(sc3nc(-c4cccc(O)c4)[nH]c(=O)c23)C1 (stereo not drawn)	> 10 µM
17. Cc1cc(-c2nc3sc4c(c3c(=O)[nH]2)CCC4)cc(C)c1O	6.38 µM
18. O=c1[nH]c(-c2ccc(C(F)(F)F)cc2)nc2sc3c(c12)CCCCC3	> 10 µM
19. CCCc1cc2c(=O)[nH]c(-c3cccc(Br)c3)nc2s1	> 10 µM
20. O=c1[nH]c(-c2ccc(Br)cc2)nc2sc3c(c12)CCC3	8.94 µM
21. O=c1[nH]c(-c2cccc(Br)c2)nc2sc3c(c12)CCCCC3	5.73 µM
22. CCCc1cc2c(=O)[nH]c(-c3cccc(OC)c3)nc2s1	> 10 µM
23. CC1CCc2c(sc3nc(-c4cccc(Br)c4)[nH]c(=O)c23)C1 (stereo not drawn)	1.02 µM
